- EXPERIMENT: Solubilization of ethercaine: maximum solubility
- Assay type: physicochemical
- ASSAY_SETUP: water without excipients, water, no excipients; read-out: Maximum Solubility of Ethercaine
- Source text: Since ETH itself, as a free base, is virtually insoluble in water and only partially soluble in 4% solution of Kolliphor ELP, at the first stage it was decided to study the effects of increasing the concentration of Kolliphor ELP and replacing it with Pluronic F127. Pluronic F127 is also an FDA-approved solubilizer of a different nature to the Kolliphor ELP, so it was selected as an alternative solubilizer for the study. […]
Where a name gives a salt, the structure may show the parent alone.
Parameter solubility: see the listing below.
MEASURED_PROPERTY: solubility (µg/mL)

compound=c1ccc(N=Nc2ccc(OCCN3CCOCC3)cc2)cc1 measured_property=solubility lt_gt_eq=< observed=1000
compound="c1ccc(/N=N/c2ccc(OCCN3CCOCC3)cc2)cc1 [ETH·HCl]" measured_property=solubility lt_gt_eq== observed=6000

----------
- EXPERIMENT: Solubilization of ethercaine: maximum solubility
- Format: physicochemical
- ASSAY_SETUP: aqueous micellar solution of Pluronic F127, 4% micellar solution of Pluronic F127; read-out: Maximum Solubility of Ethercaine
- From the text: Since ETH itself, as a free base, is virtually insoluble in water and only partially soluble in 4% solution of Kolliphor ELP, at the first stage it was decided to study the effects of increasing the concentration of Kolliphor ELP and replacing it with Pluronic F127. Pluronic F127 is also an FDA-approved solubilizer of a different nature to the Kolliphor ELP, so it was selected as an alternative solubilizer for the study. […]
Where a name gives a salt, the structure may show the parent alone.
MEASURED_PROPERTY: solubility

compound="c1ccc(/N=N/c2ccc(OCCN3CCOCC3)cc2)cc1 [ETH·HCl]" observed="≥ 20 mg/mL"

----------
Entries and their measured solubility follow.
- EXPERIMENT: Solubilization of ethercaine: maximum solubility
- Format: physicochemical
- ASSAY_SETUP: aqueous micellar solution of Kolliphor ELP, aqueous with cosolvent or surfactant or cyclodextrin, 4% micellar solution of Kolliphor ELP; read-out: Maximum Solubility of Ethercaine
Where a name gives a salt, the structure may show the parent alone.
MEASURED_PROPERTY: solubility (µg/mL)

compound="c1ccc(N=Nc2ccc(OCCN3CCOCC3)cc2)cc1 [ETH, 4-(2-(N-Morpholino)-ethoxy)-azobenzene]" lt_gt_eq== observed=6000
compound="c1ccc(/N=N/c2ccc(OCCN3CCOCC3)cc2)cc1 [ETH·HCl]" lt_gt_eq=> observed=20000

----------
- EXPERIMENT: Solubilization of ethercaine: maximum solubility
- Assay type: physicochemical
- ASSAY_SETUP: aqueous micellar solution of Kolliphor ELP, 4% micellar solution of Kolliphor ELP; read-out: Maximum Solubility of Ethercaine
Where a name gives a salt, the structure may show the parent alone.
MEASURED_PROPERTY: solubility

compound="c1ccc(/N=N/c2ccc(OCCN3CCOCC3)cc2)cc1 [ETH·HCl]" observed="≥ 20 mg/mL"

----------
- EXPERIMENT: Solubilization of ethercaine: maximum solubility
- Assay type: physicochemical
- ASSAY_SETUP: aqueous micellar solution of Pluronic F127, aqueous with cosolvent or surfactant or cyclodextrin, 4% micellar solution of Pluronic F127; read-out: Maximum Solubility of Ethercaine
Structures can show the parent of a compound that is named as a salt.
MEASURED_PROPERTY: solubility (µg/mL)

compound="c1ccc(/N=N/c2ccc(OCCN3CCOCC3)cc2)cc1 [ETH·HCl]" measured_property=solubility units_symbol=µg/mL lt_gt_eq=> observed=20000
compound="c1ccc(N=Nc2ccc(OCCN3CCOCC3)cc2)cc1 [ETH, 4-(2-(N-Morpholino)-ethoxy)-azobenzene]" measured_property=solubility units_symbol=µg/mL lt_gt_eq== observed=7000

----------
- EXPERIMENT: Solubilization of ethercaine: maximum solubility
- Assay type: physicochemical
- ASSAY_SETUP: aqueous micellar solution of Kolliphor ELP, aqueous with cosolvent or surfactant or cyclodextrin, 10% micellar solution of Kolliphor ELP; read-out: Maximum Solubility of Ethercaine
MEASURED_PROPERTY: solubility (µg/mL)

compound="c1ccc(N=Nc2ccc(OCCN3CCOCC3)cc2)cc1 [ETH, 4-(2-(N-Morpholino)-ethoxy)-azobenzene]" observed=10000
